# run.description: Evaluated for 50% cytotoxic concentration based on reduction of viability of mock-infected cells
# Assay type: cell-based
# experimental.context: human, MT4 cells (mock-infected)
Measured log10(CC50), listed per entry.
Hi team, quick reminder: these entries are log10 of CC50 (µM).

The compound `CCCCCCCCCCCCCCCC(=O)Nc1cc(S(=O)(=O)O)cc2cc(S(=O)(=O)O)cc(S(=O)(=O)O)c12` showed log10(CC50) equal to 1.62

The compound `CCCCCCCCCCCCCCCC(=O)Nc1cc(S(=O)(=O)O)cc2cc(S(=O)(=O)O)cc(O)c12` showed log10(CC50) equal to 2.40

The compound `Nc1cc(S(=O)(=O)O)c2ccccc2c1N` showed log10(CC50) equal to 2.28

The compound `O=C(CCCCCCCCC(=O)Nc1cc(S(=O)(=O)O)cc2cc(S(=O)(=O)O)cc(O)c12)Nc1cc(S(=O)(=O)O)cc2cc(S(=O)(=O)O)cc(O)c12` showed log10(CC50) equal to 2.46

The compound `Nc1cc(S(=O)(=O)O)cc2cc(S(=O)(=O)O)cc(O)c12` showed log10(CC50) equal to 2.72

Now let's try a different one.
The compound `Nc1ccc2c(S(=O)(=O)O)cc(S(=O)(=O)O)c(N)c2c1O` showed log10(CC50) equal to 0.89

* * *

Human immunodeficiency virus type 1 reverse transcriptase (Human immunodeficiency virus 1): reported IC50 for various molecules.
Entry rule: numbers only, all in µM.

For the molecule `O=C(CCCCCCCCC(=O)Nc1cc(S(=O)(=O)O)cc2cc(S(=O)(=O)O)cc(O)c12)Nc1cc(S(=O)(=O)O)cc2cc(S(=O)(=O)O)cc(O)c12` , the measured IC50 on Human immunodeficiency virus type 1 reverse transcriptase (Human immunodeficiency virus 1) was 52

For the molecule `Nc1cc(S(=O)(=O)O)c2ccccc2c1N` , the measured IC50 on Human immunodeficiency virus type 1 reverse transcriptase (Human immunodeficiency virus 1) was 50

Now let's try a different one.
For the molecule `CCCCCCCCCCCCCCCC(=O)Nc1cc(S(=O)(=O)O)cc2cc(S(=O)(=O)O)cc(S(=O)(=O)O)c12` , the measured IC50 on Human immunodeficiency virus type 1 reverse transcriptase (Human immunodeficiency virus 1) was 55

* * *

# Tested on: MT4
# run.description: Evaluated for 50% antiviral effective concentration based on inhibition of HIV-1 (HTLV-IIIB) induced cytopathogenicity in MT-4 cells
# Type: functional, cell-based
# experimental.context: Homo sapiens
pEC50: −log10 of the molar value.
Measured pEC50, listed per entry.

Here are 3 compounds together with their reported answers.
The compound `CC(=O)Oc1cc(S(=O)(=O)O)cc2cc(S(=O)(=O)O)c(N=Nc3ccccc3)c(OC(C)=O)c12` showed pEC50 equal to < 3.30

The compound `CCCCCCCCCCCCCCCC(=O)Nc1cc(S(=O)(=O)O)cc2cc(S(=O)(=O)O)cc(O)c12` showed pEC50 equal to 4.43

The compound `Cc1ccc(C(=O)Nc2ccc(S(=O)(=O)O)c3cc(S(=O)(=O)O)cc(S(=O)(=O)O)c23)cc1NC(=O)c1cccc(NC(=O)Nc2cccc(C(=O)Nc3cc(C(=O)Nc4ccc(S(=O)(=O)O)c5cc(S(=O)(=O)O)cc(S(=O)(=O)O)c45)ccc3C)c2)c1` showed pEC50 equal to 5.09

***
The compound `O=S(=O)(O)c1cc(NS(=O)(=O)c2ccc(-c3ccc(S(=O)(=O)Nc4cc(S(=O)(=O)O)cc5cc(S(=O)(=O)O)cc(S(=O)(=O)O)c45)cc3)cc2)c2c(S(=O)(=O)O)cc(S(=O)(=O)O)cc2c1` showed pEC50 equal to 4.44

The compound `CCCCCCCCCCCCCCCC(=O)Oc1cc(S(=O)(=O)O)cc2cc(S(=O)(=O)O)cc(OC(=O)CCCCCCCCCCCCCCC)c12` showed pEC50 equal to < 4.82

The compound `O=C(CCCCCCCCC(=O)Nc1cc(S(=O)(=O)O)cc2cc(S(=O)(=O)O)cc(O)c12)Nc1cc(S(=O)(=O)O)cc2cc(S(=O)(=O)O)cc(O)c12` showed pEC50 equal to 5.01
